Cited source: the supplement of paper PMC6555819

Test system: PPARg:RXRa 30nM:10nM, anti-RXR (NR concentration 30 nM, RXRa partner concentration 10 nM)
protocol.text: PBM binding z-score (relative to random genomic background probes); higher = stronger binding; sequences stand for … in GC…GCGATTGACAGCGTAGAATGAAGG
Classify by measured PBM binding z-score: label 1 if it is equal to or exceeds 3, label 0 if it is smaller.

Solved entries:
{"sequence.code": "TAGCCTAGGTCATTGGCCAGTATACCACGCGAAC", "target.or.test.system": "PPARg:RXRa 30nM:10nM, anti-RXR (NR concentration 30 nM, RXRa partner concentration 10 nM)", "class.label": "label 0"}
{"sequence.code": "CCGACTGGGGCAGAAAGGTTACCGTACCATCCGG", "target.or.test.system": "PPARg:RXRa 30nM:10nM, anti-RXR (NR concentration 30 nM, RXRa partner concentration 10 nM)", "class.label": "label 0"}
{"sequence.code": "TAGCCTAGGTCATTGAGGGGCCAGTATAGAAAGC", "target.or.test.system": "PPARg:RXRa 30nM:10nM, anti-RXR (NR concentration 30 nM, RXRa partner concentration 10 nM)", "class.label": "label 0"}
{"sequence.code": "ATATGTAGGTTAGCTGGGGTCTTTCAGACTAGGC", "target.or.test.system": "PPARg:RXRa 30nM:10nM, anti-RXR (NR concentration 30 nM, RXRa partner concentration 10 nM)", "class.label": "label 0"}
{"sequence.code": "TCATATGGGTAAAGGTGAAAGTCGAACGATATGA", "target.or.test.system": "PPARg:RXRa 30nM:10nM, anti-RXR (NR concentration 30 nM, RXRa partner concentration 10 nM)", "class.label": "label 1"}

Check the entry TCTATCAGTTGATTAGGGCAACCGAAACAGCGGA : does PBM binding z-score equal or exceed 3? label 1

Check the entry CCTTACGGGTCACGACGTTATAGCACGACGAGCG : does PBM binding z-score equal or exceed 3? label 0

Check the entry TCTTGTAGATCAATAGAGGTTAATAAAGTGCGCT : does PBM binding z-score equal or exceed 3? label 0

Check the entry GGAACGAGGGCAAAGTTGATAGCGTCTGTCGACG : does PBM binding z-score equal or exceed 3? label 1

Check the entry AGAACGCGGGCAATGAGTTGATAGCACGGGTGGC : does PBM binding z-score equal or exceed 3? label 0

Check the entry ATCTCTAGGTAAGACTCAGTTCAGTTAAGAACGC : does PBM binding z-score equal or exceed 3? label 0

Check the entry TCTGCTAGGTCAACGATGGTCAGCTATTCTGCTA : does PBM binding z-score equal or exceed 3? label 0

---

Reported PBM binding z-score values for a set of sequences
Test system: RARa homodimer (NR concentration 270 nM)
protocol.text: PBM binding z-score (relative to random genomic background probes); higher = stronger binding; sequences stand for … in GC…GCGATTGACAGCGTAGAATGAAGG
Answer using only a numeral; do not append any unit.

See these solved cases before continuing.
{"sequence.code": "TCTCGGAGAACACGAAAGGTCAGAGCTCGACATC", "PBM binding z-score": 0.536}
{"sequence.code": "TAGCCTAGGTCAGATCCGGCCAGTATACGCTATA", "PBM binding z-score": -0.924}

# PBM binding z-score lookup, item TATCCTAGGTCATGGGCCAGTATACCACGCGAAC 1.01

# PBM binding z-score lookup, item TTGCCTAGGTCATGCGGGCCAGTATAGTGTCGGC -0.448

# PBM binding z-score lookup, item ACTATTAATTGACTTAGGGCAACCGATACGACGC 2.46

---

System: PPARg homodimer (NR concentration 180 nM)
protocol.text: PBM binding z-score (relative to random genomic background probes); higher = stronger binding; sequences stand for … in GC…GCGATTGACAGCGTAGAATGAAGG
measured.quantity: PBM binding z-score

See these solved cases before continuing.
{"sequence.code": "CATACTGGGCCATTCAGAGGTCATTGATCATATG", "measured.quantity": "PBM binding z-score", "observed": 2.57}
{"sequence.code": "CCTTACGGGTCACTGACTGGTTATAGCATTTGGA", "measured.quantity": "PBM binding z-score", "observed": 3.15}
{"sequence.code": "CGAACTAGGTCATTGACAGGACAGGGAATAGTAA", "measured.quantity": "PBM binding z-score", "observed": 1.49}
{"sequence.code": "ATATGCAGGTTACATCCGGGTCATTCAGGCTATG", "measured.quantity": "PBM binding z-score", "observed": 1.59}
{"sequence.code": "TCTTGTAGATCAACAGGACGTTAAGAAAGATCGA", "measured.quantity": "PBM binding z-score", "observed": 0.259}
{"sequence.code": "CCTACTGGGACATTCAGAGGTCATTGATCATATG", "measured.quantity": "PBM binding z-score", "observed": 3.07}
{"sequence.code": "TCTTGTAGATCAAGCAAGTTAAGAAAGCCTGAGT", "measured.quantity": "PBM binding z-score", "observed": -0.466}
{"sequence.code": "ATTATTAGTTGAGACGAGGGCAACCGATAGGTTG", "measured.quantity": "PBM binding z-score", "observed": 1.77}

# PBM binding z-score lookup, item CTACCAAGGCGAACAAGGTCGTTGATTACTATTC 0.33

# PBM binding z-score lookup, item CGTCCAAGGTCGGAGAGGTCAGTGAATGCCGAGT 1.93

# PBM binding z-score lookup, item ATATGTAGGTTATCGGGTCATCCAGTTTGCGCAT 3.09

# PBM binding z-score lookup, item GCAACGAGGGCATTCGAGTTGATAGCATGGCGAT -0.299

---

Tested on: PPARg:RXRa (NR concentration 180 nM, RXRa partner concentration 90 nM)
protocol.text: PBM binding z-score (relative to random genomic background probes); higher = stronger binding; sequences stand for … in GC…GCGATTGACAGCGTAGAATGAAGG
Reported PBM binding z-score values for a set of sequences
Answer using only a numeral; do not append any unit.

See these solved cases before continuing.
{"sequence.code": "GCTTACGGGTCAATGGTTATAGCATGAATAGAAT", "observed": 4.3}
{"sequence.code": "CGTCGAAGGTCAGCAGGTCAGTGAAAGCGACGTG", "observed": 4.28}
{"sequence.code": "TCTAGTTGGTCACGGAGGTCACACATGACGGGTA", "observed": 3.59}

Here's the next entry for you.
# PBM binding z-score lookup, item TAGCCTAGGGCAGATCGGGCCAGTATACGCTATA 0.168

---

Tested on: RARg:RXRa (NR concentration 270 nM, RXRa partner concentration 90 nM)
protocol.text: PBM binding z-score (relative to random genomic background probes); higher = stronger binding; sequences stand for … in GC…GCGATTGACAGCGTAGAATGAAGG
Reported PBM binding z-score values for a set of sequences
Answer using only a numeral; do not append any unit.

{"sequence.code": "AGAACGACGGCAATGAGTTGATAGCACGGGTGGC", "PBM binding z-score": -0.245}

Form entry - test system: RARg:RXRa (NR concentration 270 nM, RXRa partner concentration 90 nM); read-out: PBM binding z-score; sequence: GATACAGGGTTAAGGCCAGAGTACGCGTATTGAT 1.7

Form entry - test system: RARg:RXRa (NR concentration 270 nM, RXRa partner concentration 90 nM); read-out: PBM binding z-score; sequence: TTACCAAGGTGAGCTGAGGTCGTTCATCCAACTC 1.4

Form entry - test system: RARg:RXRa (NR concentration 270 nM, RXRa partner concentration 90 nM); read-out: PBM binding z-score; sequence: AGTCAAAGTTCACTAGGTAACGAAAGATTCAGCT 4.86

Form entry - test system: RARg:RXRa (NR concentration 270 nM, RXRa partner concentration 90 nM); read-out: PBM binding z-score; sequence: GATACAGGGTCAGCTAGAGGCCAGAGGATGGAAA 6.91

Form entry - test system: RARg:RXRa (NR concentration 270 nM, RXRa partner concentration 90 nM); read-out: PBM binding z-score; sequence: GCCGCTAGGTCAGGTTGGTCAGCTAACGGGTACG 2.62

---

System: LXRa:RXRa (NR concentration 270 nM, RXRa partner concentration 90 nM)
protocol.text: PBM binding z-score (relative to random genomic background probes); higher = stronger binding; sequences stand for … in GC…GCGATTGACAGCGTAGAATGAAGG
measured.quantity: PBM binding z-score
Answer using only a numeral; do not append any unit.

See these solved cases before continuing.
{"sequence.code": "TCTGCTAGTTCAACGATGGTCAGCTAATCTGCTA", "PBM binding z-score": 0.175}
{"sequence.code": "GCAGACAGGTGAAACGCTGGTAACTCAGGGTGGC", "PBM binding z-score": 0.0267}
{"sequence.code": "CGTCCAAGGTCAGAGTGGTCAGTGAATGCCGAGT", "PBM binding z-score": 3.23}

# PBM binding z-score lookup, item CCAACTGGGCCATTCAGAGGTCATTGATCATATG 4.24

# PBM binding z-score lookup, item CATTACGGGTCACTGACAGGTTATAGCATTTGGA 5.1
